test system: SF-539 CNS; test: NCI-60 one-dose screen, 48 h (100 = growth as untreated, 0 = no growth, -100 = all killed); conditions: 10 µM unless noted
Compounds without any hit were thinned out: in the full panel of roughly 83,000, 20% have a hit.
Where growth equals or exceeds 80%, the correct label is true (1); where it does not, the label is false (0).

Worked examples follow.
Determine whether this compound has growth no lower than 80%: COc1ccc(OC)c(-c2c(C#N)c(-c3ccc(Cl)cc3)nc3c2c(-c2ccccc2)nn3-c2ccccc2)c1
true (1)

Determine whether this compound has growth no lower than 80%: O=C(/C=C/c1ccc(Cl)nc1)c1ccc(Cl)cc1Cl
true (1)

Determine whether this compound has growth no lower than 80%: COc1ccc2c(c1)CCCN2c1c2ccccc2nc2ccccc12
false (0)

Determine whether this compound has growth no lower than 80%: CCc1ccccc1-n1c(N)c(C#N)c(-c2ccc(N(C)C)cc2)c(C#N)c1=O
true (1)

Determine whether this compound has growth no lower than 80%: Cc1ccc(NS(=O)(=O)c2ccc3c(c2)C2OCCC2C(c2ccc(C(=O)C(C)C)cc2)N3)cc1C (stereo not given)
false (0)

Determine whether this compound has growth no lower than 80%: CN(C)c1ccc(-c2cc(-c3ccc(Nc4nc(Nc5ccc(Cl)cc5)nc(Nc5ccc(Cl)cc5)n4)cc3)no2)cc1
false (0)

Determine whether this compound has growth no lower than 80%: CCN1C(=O)N(CC)C2Nn3c(s/c(=C\c4ccc(Cl)cc4Cl)c3=O)=NC21 (stereo not given)
false (0)

Determine whether this compound has growth no lower than 80%: COc1ccc(-c2ccc3c(c2)sc2nc(-c4ccc(F)cc4)cn23)cc1
true (1)

New cases:
Determine whether this compound has growth no lower than 80%: CCN(CC)CCn1nc2c3c(cccc3c1=O)-c1ccccc1-2
false (0)

* * *

system: PC-3 prostate; experiment: NCI-60 one-dose screen, 48 h (100 = growth as untreated, 0 = no growth, -100 = all killed); details: 10 µM unless noted
About 83,000 compounds went through this panel and 20% of them were active in at least one assay; those are over-represented in the sample as a whole.
Where growth equals or exceeds 80%, the correct label is MET; where it does not, the label is NOT MET.

Worked examples follow.
Determine whether this compound has growth no lower than 80%: COc1cc2ncn3c(=O)c4c5c(sc4nc3c2cc1OC)CCCC5
MET

Determine whether this compound has growth no lower than 80%: Cc1c(C(=O)N[C@@H](Cc2ccccc2)C(=O)C(=O)NCCc2ccccc2)[nH]c2ccccc2c1=O
MET

Determine whether this compound has growth no lower than 80%: Cc1cc(NCc2cc(Nc3ccnc4cc(Cl)ccc34)ccc2F)nc(N2CCN(c3ccccc3)CC2)n1
NOT MET

Determine whether this compound has growth no lower than 80%: COc1cccc(-c2nc3sccn3c2-c2ccnc(NCCNS(=O)(=O)c3cccc(F)c3)c2)c1
NOT MET

Determine whether this compound has growth no lower than 80%: O=C(c1ccccc1)N1N=C(c2ccccc2)CC1c1nnc2n(Cc3ccccc3)c(=O)c3c4c(sc3n12)CCCC4 (centres undefined)
MET

Determine whether this compound has growth no lower than 80%: O=C(O)C1CCC(=O)N1C(=O)OCc1ccccc1 (centres undefined)
MET

New cases:
Determine whether this compound has growth no lower than 80%: C=C(C)[C@@H]1CC=C2c3sc(-c4ccc(C)cc4)nc3C[C@@H](C)[C@]2(C)C1
MET

Determine whether this compound has growth no lower than 80%: O=C(Nc1cccc(C(F)(F)F)c1)Nc1cccc(C(F)(F)F)c1
NOT MET

Determine whether this compound has growth no lower than 80%: CCCCCCN(CCCCCC)c1ccc(/C=C2/SC(=O)N(c3nc(N4CCCC4)nc(N4CCCC4)n3)C2=O)c(C)c1
NOT MET

Determine whether this compound has growth no lower than 80%: CCCCCCCCCCCCCCCCCC1=NCCN1CCOC1=C(Cl)C(=O)c2ccccc2C1=O
NOT MET

Determine whether this compound has growth no lower than 80%: COc1ccc(NC(=O)CSc2nnc(-c3cc(-c4ccc(S(N)(=O)=O)cc4)nc4ccccc34)n2-c2ccccc2)cc1
NOT MET

Determine whether this compound has growth no lower than 80%: Cc1ccc(-c2cc3c(cc2O)C2CCCCC2(N2CCOCC2)O3)cc1 (centres undefined)
NOT MET

* * *

system: PC-3 prostate; assay: NCI-60 one-dose screen, 48 h; details: 10 µM unless noted
Compounds without any hit were thinned out: in the full panel of roughly 83,000, 20% have a hit. Calls of active or inactive are those of the source. Rule for the calls: active = growth percent below 10; inactive = the rest.
Entry note: the call must match one of label 1 = active, label 0 = inactive

Could you kindly confirm the outcome this assay logged for COC(=O)[C@]12CC[C@@H](C)[C@H](C)[C@@H]1C1=CC[C@@H]3[C@@]4(C)C(C=O)=C[C@@](C)(CO)[C@@H]4[C@H](O)C[C@@]3(C)[C@]1(C)CC2 ?
label 1

New cases:
Could you kindly confirm the outcome this assay logged for Cc1cc(C)c(-c2c(C)cc(C)cc2CBr)c(CBr)c1 ?
label 0

Could you kindly confirm the outcome this assay logged for Cc1c(O)cc(-c2cnc(N/N=C\c3ccc(Cl)cc3)s2)c(O)c1C ?
label 0

Could you kindly confirm the outcome this assay logged for O=C1Nc2ccccc2/C1=C/c1cn(C(=O)c2c(Cl)cccc2Cl)c2ccccc12 ?
label 0

Could you kindly confirm the outcome this assay logged for COc1ccc2nc(NNC(=O)c3cnccn3)c3cccn3c2c1 ?
label 0

Could you kindly confirm the outcome this assay logged for CCOC(=O)c1c(-c2ccc(Cl)cc2)c(C#N)c(=O)n(-c2ccccc2CC)c1N ?
label 0

Could you kindly confirm the outcome this assay logged for C(=N\Nc1ncc(-c2cc3cc4c(cc3o2)OCO4)s1)/c1ccco1 ?
label 0

Could you kindly confirm the outcome this assay logged for COC(=O)c1c2c(c[n+]([O-])c1C)C(=O)C=CC2=O ?
label 0

Could you kindly confirm the outcome this assay logged for COc1ccc(/C=N\NC(=O)c2cc(-c3ccc(Br)cc3)n(-c3ccc(S(N)(=O)=O)cc3)n2)cc1 ?
label 0

Could you kindly confirm the outcome this assay logged for Cc1cccc(Cc2cnc(NC(=O)c3ccc4nnsc4c3)s2)c1 ?
label 0

Could you kindly confirm the outcome this assay logged for CC/C=C\C/C=C\C[C@H](O)C/C=C1/C(=O)C=C[C@@H]1C/C=C\CCCC(=O)O ?
label 0

Could you kindly confirm the outcome this assay logged for c1ccc2cc3nc4cc5ccccc5cc4nc3cc2c1 ?
label 0

Could you kindly confirm the outcome this assay logged for N=C(N)c1ccc(-c2ccc(-c3cncc4ccccc34)s2)s1 ?
label 1

Could you kindly confirm the outcome this assay logged for COc1ccc(C(=O)COc2ccc(/C=C3\Oc4ccccc4C3=O)cc2)cc1 ?
label 0

Could you kindly confirm the outcome this assay logged for CCOC(=O)c1c2ncccc2n2c(=O)n(-c3ccccc3C)nnc12 ?
label 0

Could you kindly confirm the outcome this assay logged for NCCCNc1nc2ccccc2c2c(=O)c3cccc(Cl)c3sc12 ?
label 0

Could you kindly confirm the outcome this assay logged for C#CCOc1nc(C)cc(C)c1C#N ?
label 0

Could you kindly confirm the outcome this assay logged for COc1ccc2[nH]c(O)c(/C=c3/cc4c(c(-c5cc(OC)c(OC)c(OC)c5)n3)=Nc3ccccc3-4)c2c1 ?
label 0

Could you kindly confirm the outcome this assay logged for CC(C)C(NC(=O)C1(NC(=O)OCc2ccccc2)CCCC1)C(=O)O (stereo not given) ?
label 0

Could you kindly confirm the outcome this assay logged for c1ccc(-c2nc([P+](c3ccccc3)(c3ccccc3)c3ccccc3)c(N3CCOCC3)o2)cc1 ?
label 1

Could you kindly confirm the outcome this assay logged for Cc1ccc(-c2cc(-c3ccccc3C)[nH]c(=O)c2C#N)s1 ?
label 0

Could you kindly confirm the outcome this assay logged for CC(=O)[C@@H]1CC[C@]2(COS(=O)(=O)c3ccc(C)cc3)CC[C@]3(C)[C@H](CC[C@@H]4[C@@]5(C)CCCNC(C)(C)[C@@H]5CC[C@]43C)[C@@H]12 ?
label 0

Could you kindly confirm the outcome this assay logged for O=c1c2cc(F)ccc2sc2c(NCCN3CCCCC3)nc3ccccc3c12 ?
label 0

Could you kindly confirm the outcome this assay logged for O=c1[nH]ccc2nc(N3CCC(O)CC3)nc(Nc3ccc(N4CCOCC4)cc3)c12 ?
label 0

Could you kindly confirm the outcome this assay logged for Cn1c(=O)c2[nH]c(NN)nc2n(C)c1=O ?
label 0

Could you kindly confirm the outcome this assay logged for O=[N+]([O-])c1ccc(C2CC(c3ccccc3)=Nc3ccccc3S2)cc1 (stereo not given) ?
label 0

Could you kindly confirm the outcome this assay logged for COc1ccc2occ(C3=C(c4c[nH]c5ccccc45)C(=O)N(O)C3=O)c2c1 ?
label 0

* * *

Tested on: SN12C renal
Assay: NCI-60 one-dose screen, 48 h
Conditions: 10 µM unless noted
Method: Growth inhibition of the SN12C human tumor cell line is measured as a screen for anti-cancer activity. Cells are grown in 96 well plates and exposed to the test compound for 48 hours. Compounds are tested at a single concentration, which is 10^-5 M for most compounds. The reported endpoint is percent growth (GI% or GIPRCNT), where numbers from 0 - 100% represent growth inhibition, and numbers from -100% - 0 represent cell death. For example, a value of 40 represents 60% growth inhibition. […]
This is part of a sample that, as a whole, favours compounds with a hit. Of some 83,000 tested, about 20% had one in any assay. Activity calls are given as the source filed them. Rule for the calls: active = growth percent below 10; inactive = the rest.
Entry note: the call must match one of T = active, F = inactive

Worked examples follow.
Could you kindly confirm the outcome this assay logged for COc1ccc2occ(C3=C(c4c[nH]c5ccccc45)C(=O)N(O)C3=O)c2c1 ?
F

Could you kindly confirm the outcome this assay logged for CCOC(=O)c1ccc(N2NC(=O)/C(=C/c3ccc([N+](=O)[O-])o3)C2=O)cc1 ?
F

Could you kindly confirm the outcome this assay logged for O=C(Nc1cccc2c(O)c(N=Nc3ccc(S(=O)(=O)Nc4nccs4)cc3)cc(N=Nc3ccc(S(=O)(=O)Nc4nccs4)cc3)c12)C(Cl)Cl ?
F

Could you kindly confirm the outcome this assay logged for CCn1c(C)nc2cc(C(N)=O)ccc21 ?
F

// next entry
Could you kindly confirm the outcome this assay logged for CCCCCCCCCCCCCCCCCCOc1ccc(CC(=O)OCC[N+]2(C)CCCC2)cc1 ?
F

Source listed as PubChem BioAssay (NCI).
